Reference for the values: patent US20210253718A1

Biological target: T1, FZD1 CRD (Homo sapiens, UniProt Q9UP38)
T1 construct: D112-P238; GPI anchor signal (C); expressed in transfected cells; host or cells: CHO cells, lentiviral pLenti-puro
Assay: Immunofluorescence of anti-FZD5 Fab binding to CHO cells overexpressing Frizzled CRD
Design: key: −: no binding; +: very weak binder; ++: weak binder; +++: good binder; ++++: very good binder
recorded_metric: Immunofluorescence binding, Frizzled CRD overexpressed on CHO cells: FZD1

Fab-2916: anti-FZD5 Fab with antibody variable region Fv-2916; CDR SEQ ID NOs: 35, 36, 55, 94, 131, 167 (antibody, V domains shown) VH: EVQLVESGGGLVQPGGSLRLSCAASGFNISYSSIHWVRQAPGKGLEWVASIYPSYSYTYYADSVKGRFTISADTSKNTAYLQMNSLRAEDTAVYYCARYGYYGMDYWGQGTLVTVSS VL: DIQMTQSPSSLSASVGDRVTITCRASQSVSSAVAWYQQKPGKAPKLLIYSASSLYSGVPSRFSGSRSGTDFTLTISSLQPEDFATYYCQQWYHYPYLITFGQGTKVEIK: ++++
Fab-2906: anti-FZD5 Fab with antibody variable region Fv-2906; CDR SEQ ID NOs: 35, 36, 45, 84, 121, 158 (antibody, V domains shown) VH: EVQLVESGGGLVQPGGSLRLSCAASGFNFSSSSIHWVRQAPGKGLEWVAYISSSYGYTYYADSVKGRFTISADTSKNTAYLQMNSLRAEDTAVYYCARTVRGSKKPYFSGWAMDYWGQGTLVTVSS VL: DIQMTQSPSSLSASVGDRVTITCRASQSVSSAVAWYQQKPGKAPKLLIYSASSLYSGVPSRFSGSRSGTDFTLTISSLQPEDFATYYCQQWSWGFLITFGQGTKVEIK: −
